binders and their reported Ca ion level-increasing activity (FLIPR)
# assayed-system: human OT7T175 (metastin receptor) (human, UniProt Q969F8 1-398)
# Sequence (Q969F8 whole entry L364H): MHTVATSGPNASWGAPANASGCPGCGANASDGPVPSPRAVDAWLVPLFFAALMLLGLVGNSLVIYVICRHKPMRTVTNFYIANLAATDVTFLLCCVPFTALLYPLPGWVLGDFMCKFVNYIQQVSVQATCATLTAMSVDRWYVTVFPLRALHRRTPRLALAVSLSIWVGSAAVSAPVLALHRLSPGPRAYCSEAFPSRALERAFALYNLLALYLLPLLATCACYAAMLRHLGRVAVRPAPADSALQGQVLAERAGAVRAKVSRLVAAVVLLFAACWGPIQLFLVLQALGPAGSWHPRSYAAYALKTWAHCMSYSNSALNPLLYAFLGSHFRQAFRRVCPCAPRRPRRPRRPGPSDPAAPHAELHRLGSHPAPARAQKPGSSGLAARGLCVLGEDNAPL
# assay-method-text: cell-based or functional assay
Non-standard residues stand in square brackets, D forms with d. No end group written: not given here. *: point of attachment. Propanoyl(3-indol-3-yl) = O=C(CCc1c[nH]c2ccccc12)*; Arg(Me) = CNC(=N)NCCC[C@H](N)C(=O)O

Ask: Value lookup for Ca ion level-increasing activity (FLIPR); key = YNWNSFALRF-NH2 (also called Compound No. 50) [[Ala7]MS10]
Reply: 30 x Metastin (1-54)

Ask: What does the record list as Ca ion level-increasing activity (FLIPR) for {Propanoyl(3-indol-3-yl)}-NSFGLRF-NH2 (SMILES CC(C)C[C@H](NC(=O)CNC(=O)[C@H](Cc1ccccc1)NC(=O)[C@H](CO)NC(=O)[C@H](CC(N)=O)NC(=O)CCc1c[nH]c2ccccc12)C(=O)N[C@@H](CCCNC(=N)N)C(=O)N[C@@H](Cc1ccccc1)C(N)=O, also called Compound No. 114) [des(1-3)-3-(3-Indolyl)propionyl-MS10] ?
Reply: 3 x Metastin (1-54)

Ask: Record request: Ca ion level-increasing activity (FLIPR) value, item [dY]NWNSFAL[Arg(Me)]F-NH2 (N-terminus assumed; SMILES CNC(=N)NCCC[C@H](NC(=O)[C@H](CC(C)C)NC(=O)[C@H](C)NC(=O)[C@H](Cc1ccccc1)NC(=O)[C@H](CO)NC(=O)[C@H](CC(N)=O)NC(=O)[C@H](Cc1c[nH]c2ccccc12)NC(=O)[C@H](CC(N)=O)NC(=O)[C@H](N)Cc1ccc(O)cc1)C(=O)N[C@@H](Cc1ccccc1)C(N)=O) [[D-Tyr1,Ala7,Arg(Me)9]MS10 (Compound No. 173)]
Reply: 1 x Metastin (1-54)

Ask: If you can, please state the reported Ca ion level-increasing activity (FLIPR) value of YKWNSFGLRF-NH2 [[Lys2]MS10] .
Reply: 1 x Metastin (1-54)

Ask: Quick check: Ca ion level-increasing activity (FLIPR) of YNWNSFGLRX (Pya(4)10; C-terminal amide, also called Compound No. 17) [[Pya(4)10]MS10] ?
Reply: 5 x Metastin (1-54)

New cases:
Ask: Param item = YNWNSFGLRX (Nal(1)10; C-terminal amide, also called Compound No. 133) [[Nal(1)10]MS10] ; retrieve measured Ca ion level-increasing activity (FLIPR).
Reply: 3 x Metastin (1-54)

Ask: Given [dY]NANSFGL[Arg(Me)]F-NH2 (N-terminus assumed; SMILES CNC(=N)NCCC[C@H](NC(=O)[C@H](CC(C)C)NC(=O)CNC(=O)[C@H](Cc1ccccc1)NC(=O)[C@H](CO)NC(=O)[C@H](CC(N)=O)NC(=O)[C@H](C)NC(=O)[C@H](CC(N)=O)NC(=O)[C@H](N)Cc1ccc(O)cc1)C(=O)N[C@@H](Cc1ccccc1)C(N)=O, also called Compound No. 169) [[D-Tyr1,Ala3,Arg(Me)9]MS10] , state its recorded Ca ion level-increasing activity (FLIPR).
Reply: 2 x Metastin (1-54)
